- system: T1, human pIgR extracellular domain (ECD) (human, UniProt P01833 19-638)
- T1 construct: also called hpIgR ECD
- T1 sequence (P01833 other isoform, or with tags, fused parts or gaps): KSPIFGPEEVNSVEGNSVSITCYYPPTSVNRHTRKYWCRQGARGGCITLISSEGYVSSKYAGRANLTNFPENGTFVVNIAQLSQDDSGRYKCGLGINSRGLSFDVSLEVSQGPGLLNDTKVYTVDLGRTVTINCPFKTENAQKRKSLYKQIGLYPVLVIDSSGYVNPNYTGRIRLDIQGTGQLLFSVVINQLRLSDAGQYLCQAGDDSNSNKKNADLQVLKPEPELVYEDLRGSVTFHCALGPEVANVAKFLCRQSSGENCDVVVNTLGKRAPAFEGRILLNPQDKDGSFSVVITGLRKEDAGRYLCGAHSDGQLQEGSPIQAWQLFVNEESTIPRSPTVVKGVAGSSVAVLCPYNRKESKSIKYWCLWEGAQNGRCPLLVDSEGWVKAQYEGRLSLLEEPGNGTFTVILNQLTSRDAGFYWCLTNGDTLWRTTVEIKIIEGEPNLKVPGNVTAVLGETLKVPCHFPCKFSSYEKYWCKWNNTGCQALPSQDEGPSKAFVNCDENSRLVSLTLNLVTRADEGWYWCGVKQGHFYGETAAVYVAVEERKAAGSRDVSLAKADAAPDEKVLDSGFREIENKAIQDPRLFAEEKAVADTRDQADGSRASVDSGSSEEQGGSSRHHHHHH
- experiment: BLI (Octet), VHH-mono-Fc and hpIgR ectodomain
pKd: −log10 of the molar value.
Entries annotated with measured pKd

binder	pKd
VHH11-linker-mono-Fc protein (Fc fusion, made in CHO cells; also called VHH11-mono-Fc; hpIgR_250) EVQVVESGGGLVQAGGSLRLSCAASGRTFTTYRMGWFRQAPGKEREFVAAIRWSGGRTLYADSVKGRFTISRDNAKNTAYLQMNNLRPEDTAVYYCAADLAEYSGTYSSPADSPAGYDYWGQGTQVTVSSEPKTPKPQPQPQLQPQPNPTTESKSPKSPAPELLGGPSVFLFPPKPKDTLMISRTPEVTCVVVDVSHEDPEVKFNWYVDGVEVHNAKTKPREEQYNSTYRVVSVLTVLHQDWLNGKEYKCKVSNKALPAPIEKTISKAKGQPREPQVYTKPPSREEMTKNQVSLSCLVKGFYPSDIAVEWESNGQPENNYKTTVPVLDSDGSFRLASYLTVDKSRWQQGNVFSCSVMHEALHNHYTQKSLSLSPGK	7.72
VHH5-linker-mono-Fc protein (Fc fusion, made in CHO cells; also called VHH5-mono-Fc; hpIgR_175) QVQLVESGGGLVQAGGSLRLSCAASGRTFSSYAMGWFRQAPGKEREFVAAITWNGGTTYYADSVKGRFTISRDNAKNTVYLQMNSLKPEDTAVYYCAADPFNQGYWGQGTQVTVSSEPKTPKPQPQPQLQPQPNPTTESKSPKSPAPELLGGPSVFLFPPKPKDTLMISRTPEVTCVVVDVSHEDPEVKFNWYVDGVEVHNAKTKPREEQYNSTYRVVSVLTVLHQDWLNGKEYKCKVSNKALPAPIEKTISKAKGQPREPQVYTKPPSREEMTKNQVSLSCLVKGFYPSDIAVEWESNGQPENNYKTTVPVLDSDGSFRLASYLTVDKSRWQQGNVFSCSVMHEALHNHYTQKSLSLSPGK	7.96
VHH7-linker-mono-Fc protein (Fc fusion, made in CHO cells; also called VHH7-mono-Fc; hpIgR_198) EVQVVESGGGLVQAGGSLRLACVASRSIGSINVMGWYRQAPGKQRDLVARITGGGSTHYAESVKGRFTISRDNAKNTVYLQMNSLEPEDTAVYYCASMVNPIITAWGTIGVREIPDYDYWGQGTQVTVSSEPKTPKPQPQPQLQPQPNPTTESKSPKSPAPELLGGPSVFLFPPKPKDTLMISRTPEVTCVVVDVSHEDPEVKFNWYVDGVEVHNAKTKPREEQYNSTYRVVSVLTVLHQDWLNGKEYKCKVSNKALPAPIEKTISKAKGQPREPQVYTKPPSREEMTKNQVSLSCLVKGFYPSDIAVEWESNGQPENNYKTTVPVLDSDGSFRLASYLTVDKSRWQQGNVFSCSVMHEALHNHYTQKSLSLSPGK	6.28
VHH10-linker-mono-Fc protein (Fc fusion, made in CHO cells; also called VHH10-mono-Fc; hpIgR_225) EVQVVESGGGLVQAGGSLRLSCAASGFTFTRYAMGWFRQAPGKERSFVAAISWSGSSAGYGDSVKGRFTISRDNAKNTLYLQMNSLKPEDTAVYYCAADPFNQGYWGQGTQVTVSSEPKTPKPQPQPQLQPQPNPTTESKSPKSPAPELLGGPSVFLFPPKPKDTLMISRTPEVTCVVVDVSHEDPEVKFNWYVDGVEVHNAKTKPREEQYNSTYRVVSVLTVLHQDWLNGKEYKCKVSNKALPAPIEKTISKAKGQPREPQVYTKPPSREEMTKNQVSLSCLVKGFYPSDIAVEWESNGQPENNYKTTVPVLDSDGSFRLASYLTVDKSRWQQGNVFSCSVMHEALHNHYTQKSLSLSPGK	6.59
VHH9-linker-mono-Fc protein (Fc fusion, made in CHO cells; also called VHH9-mono-Fc; hpIgR_221) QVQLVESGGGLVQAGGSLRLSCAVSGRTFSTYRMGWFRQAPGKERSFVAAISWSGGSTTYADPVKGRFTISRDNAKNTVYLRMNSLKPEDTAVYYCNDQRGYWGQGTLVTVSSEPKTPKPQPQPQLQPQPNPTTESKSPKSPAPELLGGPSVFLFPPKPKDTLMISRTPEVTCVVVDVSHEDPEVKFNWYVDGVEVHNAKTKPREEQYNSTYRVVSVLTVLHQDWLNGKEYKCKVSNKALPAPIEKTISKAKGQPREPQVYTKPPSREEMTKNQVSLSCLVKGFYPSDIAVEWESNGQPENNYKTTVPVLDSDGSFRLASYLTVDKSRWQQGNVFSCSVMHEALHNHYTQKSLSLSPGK	8.40
VHH4-linker-mono-Fc protein (Fc fusion, also called VHH4-mono-Fc; hpIgR_073) EVQVVESGGGLVQAGGSLRLSCAVSGTSVSSNAMGWYRQAPGKQREWVGFIDRIATTTIATSVKGRFAITRDNAKNTVYLQMSGLKPEDTAVYYCNHPLTARWGQGTQVTVSSEPKTPKPQPQPQLQPQPNPTTESKSPKSPAPELLGGPSVFLFPPKPKDTLMISRTPEVTCVVVDVSHEDPEVKFNWYVDGVEVHNAKTKPREEQYNSTYRVVSVLTVLHQDWLNGKEYKCKVSNKALPAPIEKTISKAKGQPREPQVYTKPPSREEMTKNQVSLSCLVKGFYPSDIAVEWESNGQPENNYKTTVPVLDSDGSFRLASYLTVDKSRWQQGNVFSCSVMHEALHNHYTQKSLSLSPGK	7.66
VHH6-linker-mono-Fc protein (Fc fusion, made in CHO cells; also called VHH6-mono-Fc; hpIgR_181) EVQLVESGGGLVQAGGSLRLSCAVSGSSVSSDAMGWYRQAPGNQRAWVAFISGGGTTTYADSVKGRFTISRDNTKNTVYLHMNSLKPEDTAVYYCNHPLTSRWGQGTQVTVSSEPKTPKPQPQPQLQPQPNPTTESKSPKSPAPELLGGPSVFLFPPKPKDTLMISRTPEVTCVVVDVSHEDPEVKFNWYVDGVEVHNAKTKPREEQYNSTYRVVSVLTVLHQDWLNGKEYKCKVSNKALPAPIEKTISKAKGQPREPQVYTKPPSREEMTKNQVSLSCLVKGFYPSDIAVEWESNGQPENNYKTTVPVLDSDGSFRLASYLTVDKSRWQQGNVFSCSVMHEALHNHYTQKSLSLSPGK	7.57
